Let's look at some variants and their measured abundance fitness.
B1: RNA-binding E3 ubiquitin-protein ligase MEX3C, residues 325 to 391; numbered along this chain, Q5U5Q3 (parent)
chain: GQTTVQVRVPYRVVGLVVGPKGATIKRIQQQTHTYIVTPSRDKEPVFEVTGMPENVDRAREEIEMHI

# Variants of: B1
# EXPERIMENT SUMMARY: abundance fitness (aPCA) (normalised: wild type 0, dead -1); higher = more abundant; growth selection in yeast, the domain comes from the species named
# CONDITION NOTES: Homo sapiens
MEASURED QUANTITY: abundance fitness

    mutation_id  measured_quantity  reported_measurement
 0         Q31C  abundance fitness                 -0.69
 1         P20V  abundance fitness                -0.449
 2         E44C  abundance fitness                -0.834
 3         E54R  abundance fitness                -0.248
 4         V49L  abundance fitness                 -0.62
 5         T24H  abundance fitness                 -0.28
 6         H33R  abundance fitness                -0.165
 7         T24V  abundance fitness                -0.517
 8         Q30W  abundance fitness                -0.566
 9         T24K  abundance fitness                -0.346
10         K43H  abundance fitness                 0.012
